test: in vitro; conditions: simian (monkey), CC50 (Vero 76, mAb-dsRNA)
Property: CC50

{"Compound": "CCN(CC)CCCC(C)Nc1ccnc2cc(Cl)ccc12 (stereo not shown)", "Reported result": "> 30 µM"}

* * *

assay: in vitro; details: human, Caco-2
Property: CC50

{"Molecule": "CCN(CC)CCCC(C)Nc1ccnc2cc(Cl)ccc12 (stereo not shown)", "Reported result": "41.7 µM"}

* * *

assay: in vitro; conditions: simian (monkey), CC50 (Vero 76, mAb-S)
Property: CC50

{"Compound": "CCN(CC)CCCC(C)Nc1ccnc2cc(Cl)ccc12 (stereo not shown)", "Reported result": "> 100 µM"}
